Reported Ki is given for each of the following compounds.
biological target: Muscarinic acetylcholine receptor M1 (Homo sapiens, UniProt P11229); test: Displacement of [3H]N-methyl Scopolamine from human muscarinic M1 receptor expressed in CHO Flp-In cells by liquid scintillation assay; type: cell-based; conditions: read-out: Ki
Sequence (P11229 whole entry): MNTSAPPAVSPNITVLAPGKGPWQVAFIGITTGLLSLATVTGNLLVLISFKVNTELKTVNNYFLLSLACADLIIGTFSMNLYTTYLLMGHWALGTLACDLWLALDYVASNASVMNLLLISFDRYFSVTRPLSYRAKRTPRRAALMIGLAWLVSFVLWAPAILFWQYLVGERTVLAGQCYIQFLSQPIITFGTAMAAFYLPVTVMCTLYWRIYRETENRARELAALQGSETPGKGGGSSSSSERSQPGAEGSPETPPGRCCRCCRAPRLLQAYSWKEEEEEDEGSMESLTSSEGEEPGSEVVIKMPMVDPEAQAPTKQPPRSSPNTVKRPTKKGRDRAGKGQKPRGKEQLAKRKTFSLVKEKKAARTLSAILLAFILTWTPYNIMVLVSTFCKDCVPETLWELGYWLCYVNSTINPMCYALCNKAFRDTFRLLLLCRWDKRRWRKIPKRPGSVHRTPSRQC
Measure: Ki (nM)

| Chemical Structure | Target Or System | Measure | Limit Qualifier | Data Value |
| --- | --- | --- | --- | --- |
| CN(c1nccc(=O)[nH]1)C1CCN(c2nc3ccccc3n2Cc2ccc(F)cc2)CC1 | Muscarinic acetylcholine receptor M1 (Homo sapiens, UniProt P11229) | Ki | > | 10000 |
| CN(C1CCCCC1)C1CCN(c2nc3ccccc3n2Cc2ccc(F)cc2)CC1 | Muscarinic acetylcholine receptor M1 (Homo sapiens, UniProt P11229) | Ki | = | 2740 |
| CNC1CCN(c2nc3ccccc3n2Cc2ccc(F)cc2)CC1 | Muscarinic acetylcholine receptor M1 (Homo sapiens, UniProt P11229) | Ki | = | 988 |
| CN(Cc1ccccc1)C1CCN(c2nc3ccccc3n2Cc2ccc(F)cc2)CC1 | Muscarinic acetylcholine receptor M1 (Homo sapiens, UniProt P11229) | Ki | = | 3580 |
| CN(CCc1ccccc1)C1CCN(c2nc3ccccc3n2Cc2ccc(F)cc2)CC1 | Muscarinic acetylcholine receptor M1 (Homo sapiens, UniProt P11229) | Ki | = | 89 |
| CN(c1ncccn1)C1CCN(c2nc3ccccc3n2Cc2ccc(F)cc2)CC1 | Muscarinic acetylcholine receptor M1 (Homo sapiens, UniProt P11229) | Ki | > | 10000 |

* * *

molecular target: Cytochrome P450 2D6 (Homo sapiens, UniProt P10635); assay: Inhibition of CYP2D6; type: ADME; conditions: read-out: IC50
Sequence (P10635 whole entry): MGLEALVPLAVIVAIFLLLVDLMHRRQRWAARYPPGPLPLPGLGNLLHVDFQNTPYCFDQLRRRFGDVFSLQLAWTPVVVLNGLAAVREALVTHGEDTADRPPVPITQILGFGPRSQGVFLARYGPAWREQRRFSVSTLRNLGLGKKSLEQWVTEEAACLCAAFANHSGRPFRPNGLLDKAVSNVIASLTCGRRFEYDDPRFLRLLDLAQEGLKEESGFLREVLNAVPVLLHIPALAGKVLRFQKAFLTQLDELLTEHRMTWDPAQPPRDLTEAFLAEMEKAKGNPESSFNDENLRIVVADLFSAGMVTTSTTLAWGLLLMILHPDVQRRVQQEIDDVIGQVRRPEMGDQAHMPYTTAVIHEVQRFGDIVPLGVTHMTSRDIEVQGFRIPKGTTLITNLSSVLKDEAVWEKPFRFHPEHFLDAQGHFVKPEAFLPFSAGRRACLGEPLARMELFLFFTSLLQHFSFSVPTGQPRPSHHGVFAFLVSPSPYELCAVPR
Reported IC50 is given for each of the following compounds.

| Chemical Structure | Target Or System | Limit Qualifier | IC50, µM |
| --- | --- | --- | --- |
| COc1ccc(Cn2c(N3CCC(NCC4CCOCC4)CC3)nc3ccccc32)cc1 | Cytochrome P450 2D6 (Homo sapiens, UniProt P10635) | = | 16.3 |
| Fc1ccc(Cn2c(N3CCC(NCC4CCOCC4)CC3)nc3ccccc32)cc1 | Cytochrome P450 2D6 (Homo sapiens, UniProt P10635) | = | 12.1 |
| COCCN(C)C1CCN(c2nc3ccccc3n2Cc2ccc(F)cc2)CC1 | Cytochrome P450 2D6 (Homo sapiens, UniProt P10635) | = | 4.44 |
| COc1ccc(Cn2c(N3CCC(N(C)C)CC3)nc3ccccc32)cc1 | Cytochrome P450 2D6 (Homo sapiens, UniProt P10635) | = | 6.07 |
| CN(C)C1CCN(c2nc3ccccc3n2Cc2ccc(F)cc2)CC1 | Cytochrome P450 2D6 (Homo sapiens, UniProt P10635) | = | 12.8 |
| CN(C)CCN(C)C1CCN(c2nc3ccccc3n2Cc2ccc(F)cc2)CC1 | Cytochrome P450 2D6 (Homo sapiens, UniProt P10635) | = | 6.13 |
| CN(c1ccccc1)C1CCN(c2nc3ccccc3n2Cc2ccc(F)cc2)CC1 | Cytochrome P450 2D6 (Homo sapiens, UniProt P10635) | > | 20 |
| Cc1ccc(Cn2c(N3CCC(N(C)C)CC3)nc3ccccc32)cc1 | Cytochrome P450 2D6 (Homo sapiens, UniProt P10635) | = | 7.21 |
| CN(C1CCOCC1)C1CCN(c2nc3ccccc3n2Cc2ccc(F)cc2)CC1 | Cytochrome P450 2D6 (Homo sapiens, UniProt P10635) | = | 6.36 |
| CN(CC1CCOCC1)C1CCN(c2nc3ccccc3n2Cc2ccc(F)cc2)CC1 | Cytochrome P450 2D6 (Homo sapiens, UniProt P10635) | = | 11 |

* * *

target: UniProt:P10635; test: Inhibition of CYP2D6; type: ADME
Reported IC50 is given for each of the following compounds.

| Chemical Structure | Limit Qualifier | IC50 [µM] |
| --- | --- | --- |
| CN(c1ncccn1)C1CCN(c2nc3ccccc3n2Cc2ccc(F)cc2)CC1 | = | 1.04 |
| CN(C1CCCCC1)C1CCN(c2nc3ccccc3n2Cc2ccc(F)cc2)CC1 | = | 2.05 |
| CN(c1nccc(=O)[nH]1)C1CCN(c2nc3ccccc3n2Cc2ccc(F)cc2)CC1 | > | 20 |
| CN(CCc1ccccc1)C1CCN(c2nc3ccccc3n2Cc2ccc(F)cc2)CC1 | = | 0.502 |
| CNC1CCN(c2nc3ccccc3n2Cc2ccc(F)cc2)CC1 | = | 6.66 |
| CN(Cc1ccccc1)C1CCN(c2nc3ccccc3n2Cc2ccc(F)cc2)CC1 | = | 0.805 |

* * *

experiment: Ratio of drug level in brain to plasma in rat at 30 mg/kg, po after 4 hrs; format: ADME, organism-based; parameters: dose 30 mg/kg, route oral

| Chemical Structure | Kp at 4 h |
| --- | --- |
| Cc1cnn(C2CCN(c3nc4ccccc4n3Cc3ccc(F)cc3)CC2)c1 | 2.3 |

* * *

system: Brain; assay: Biodistribution in rat brain at 1 mg/kg, iv after 2 hrs in presence of triprolidine; format: ADME, organism-based; set-up: dose 1 mg/kg, route intravenous; conditions: in vivo
Reported Drug uptake is given for each of the following compounds.

| Compound | Target Or System | Drug uptake (ng) |
| --- | --- | --- |
| CN(C1CCOCC1)C1CCN(c2nc3ccccc3n2Cc2ccc(F)cc2)CC1 | Brain | 39.4 |
| CN(c1nccc(=O)[nH]1)C1CCN(c2nc3ccccc3n2Cc2ccc(F)cc2)CC1 [MIZOLASTINE] | Brain | 55.6 |
| Cc1ccc(/C(=C\CN2CCCC2)c2ccccn2)cc1 [TRIPROLIDINE] | Brain | 55.6 |
| CN(CC1CCOCC1)C1CCN(c2nc3ccccc3n2Cc2ccc(F)cc2)CC1 | Brain | 39.4 |
| CN(C)C1CCN(c2nc3ccccc3n2Cc2ccc(F)cc2)CC1 | Brain | 55.3 |

* * *

target: Histamine H1 receptor (Homo sapiens); experiment: Displacement of [3H]pyrilamine from human histamine H1 receptor expressed in CHO Flp-In cells by liquid scintillation assay; format: cell-based; conditions: read-out: Ki
Sequence (P35367 whole entry): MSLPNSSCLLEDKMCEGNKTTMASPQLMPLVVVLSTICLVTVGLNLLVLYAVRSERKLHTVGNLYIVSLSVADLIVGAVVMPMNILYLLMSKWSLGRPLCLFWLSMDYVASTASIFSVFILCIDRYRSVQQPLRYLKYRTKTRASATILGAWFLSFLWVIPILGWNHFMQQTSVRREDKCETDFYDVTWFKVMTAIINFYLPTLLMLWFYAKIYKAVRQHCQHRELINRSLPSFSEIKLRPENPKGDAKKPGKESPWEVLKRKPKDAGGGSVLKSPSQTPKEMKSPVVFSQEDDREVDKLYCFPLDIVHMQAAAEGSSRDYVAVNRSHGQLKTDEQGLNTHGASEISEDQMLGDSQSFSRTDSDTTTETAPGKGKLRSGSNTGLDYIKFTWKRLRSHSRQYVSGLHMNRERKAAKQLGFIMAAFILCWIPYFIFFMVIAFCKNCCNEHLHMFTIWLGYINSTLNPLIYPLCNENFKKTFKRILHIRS

| Chemical Structure | Target Or System | Units Label | Ki |
| --- | --- | --- | --- |
| Fc1ccc(Cn2c(N3CCC(NCC4CCOCC4)CC3)nc3ccccc32)cc1 | Histamine H1 receptor (Homo sapiens) | nM | 4.5 |
| Fc1ccc(Cn2c(N3CCC(n4cccn4)CC3)nc3ccccc32)cc1 | Histamine H1 receptor (Homo sapiens) | nM | 18.3 |
| COc1ccc(Cn2c(N3CCC(N(C)CC4CCOCC4)CC3)nc3ccccc32)cc1 | Histamine H1 receptor (Homo sapiens) | nM | 14.1 |
| Fc1ccc(Cn2c(N3CCC(n4ccnc4)CC3)nc3ccccc32)cc1 | Histamine H1 receptor (Homo sapiens) | nM | 1.3 |
| CN(CCc1ccccc1)C1CCN(c2nc3ccccc3n2Cc2ccc(F)cc2)CC1 | Histamine H1 receptor (Homo sapiens) | nM | 2.4 |
| CN(c1ncccn1)C1CCN(c2nc3ccccc3n2Cc2ccc(F)cc2)CC1 | Histamine H1 receptor (Homo sapiens) | nM | 75.2 |
| CN(C1CCCCC1)C1CCN(c2nc3ccccc3n2Cc2ccc(F)cc2)CC1 | Histamine H1 receptor (Homo sapiens) | nM | 2.8 |
| CN(CCO)C1CCN(c2nc3ccccc3n2Cc2ccc(F)cc2)CC1 | Histamine H1 receptor (Homo sapiens) | nM | 3.2 |
| CNC1CCN(c2nc3ccccc3n2Cc2ccc(F)cc2)CC1 | Histamine H1 receptor (Homo sapiens) | nM | 2.4 |
| CN(C)CCN(C)C1CCN(c2nc3ccccc3n2Cc2ccc(F)cc2)CC1 | Histamine H1 receptor (Homo sapiens) | nM | 2.9 |
| CN(c1nccc(=O)[nH]1)C1CCN(c2nc3ccccc3n2Cc2ccc(F)cc2)CC1 | Histamine H1 receptor (Homo sapiens) | nM | 2.7 |
| COc1ccc(Cn2c(N3CCC(n4cc(C)cn4)CC3)nc3ccccc32)cc1 | Histamine H1 receptor (Homo sapiens) | nM | 7.1 |
| Fc1ccc(Cn2c(N3CCC(n4cccc4)CC3)nc3ccccc32)cc1 | Histamine H1 receptor (Homo sapiens) | nM | 59.3 |
| Cc1ccc(Cn2c(N3CCC(N(C)C)CC3)nc3ccccc32)cc1 | Histamine H1 receptor (Homo sapiens) | nM | 1.5 |
| COCCN(C)C1CCN(c2nc3ccccc3n2Cc2ccc(F)cc2)CC1 | Histamine H1 receptor (Homo sapiens) | nM | 2.2 |
| CN(C)C1CCN(c2nc3ccccc3n2Cc2ccc(F)cc2)CC1 | Histamine H1 receptor (Homo sapiens) | nM | 1.8 |
| O=C1CCCCN1C1CCN(c2nc3ccccc3n2Cc2ccc(F)cc2)CC1 | Histamine H1 receptor (Homo sapiens) | nM | 6.6 |
| COc1ccc(Cn2c(N3CCC(N(C)C)CC3)nc3ccccc32)cc1 | Histamine H1 receptor (Homo sapiens) | nM | 2.4 |
| COc1ccc(Cn2c(N3CCC(NCC4CCOCC4)CC3)nc3ccccc32)cc1 | Histamine H1 receptor (Homo sapiens) | nM | 14.1 |
| CN(Cc1ccccc1)C1CCN(c2nc3ccccc3n2Cc2ccc(F)cc2)CC1 | Histamine H1 receptor (Homo sapiens) | nM | 3.6 |

Measured values drawn from ChEMBL document CHEMBL1154013 for this set.
